The origin of these recorded values is patent US20200317817A1.

Molecular target: T1, mouse PTH1R overexpressed on CHO cells (mouse, UniProt P41593 27-591)
T1 sequence (looked up): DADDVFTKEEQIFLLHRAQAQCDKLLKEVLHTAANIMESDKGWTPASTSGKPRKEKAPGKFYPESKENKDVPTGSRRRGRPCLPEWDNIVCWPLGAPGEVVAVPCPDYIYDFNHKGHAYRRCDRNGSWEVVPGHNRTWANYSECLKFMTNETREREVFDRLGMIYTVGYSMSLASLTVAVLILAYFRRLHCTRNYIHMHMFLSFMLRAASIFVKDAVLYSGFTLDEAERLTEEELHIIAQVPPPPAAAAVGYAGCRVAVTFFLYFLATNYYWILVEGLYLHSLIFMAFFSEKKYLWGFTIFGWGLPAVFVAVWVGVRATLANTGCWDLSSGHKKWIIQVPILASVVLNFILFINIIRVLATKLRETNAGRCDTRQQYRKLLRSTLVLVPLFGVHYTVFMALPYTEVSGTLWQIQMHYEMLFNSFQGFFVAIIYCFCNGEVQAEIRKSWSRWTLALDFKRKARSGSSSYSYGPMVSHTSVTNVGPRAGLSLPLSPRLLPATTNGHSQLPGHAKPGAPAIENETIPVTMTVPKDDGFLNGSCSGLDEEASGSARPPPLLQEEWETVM
Experiment: cell-based or functional assay
// IC50, inhibition of PTHrP(1-34)-induced cAMP accumulation lookup, one value per entry
Respond with the bare value in nM.

Binder | Unit Symbol | Recorded Number
XPA.85.345 (antibody, V domains shown, Light-chain-shuffled variant of XPA.85.012) VH: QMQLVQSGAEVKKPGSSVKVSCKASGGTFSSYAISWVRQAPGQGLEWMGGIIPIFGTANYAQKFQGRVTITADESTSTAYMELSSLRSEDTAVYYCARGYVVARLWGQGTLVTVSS VL: ETTLTQSPAFMSASVGDRVTITCQASQDINNFLNWYQQKPGKAPKFLIYDASNLEKGVPSRFSGRGSGTEFTLTISSLQPEDIATYYCQQYRDFPLTFGQGTRLEIK | nM | 2.53
XPA.85.330 (antibody, V domains shown, IgG; also called Ab330) VH: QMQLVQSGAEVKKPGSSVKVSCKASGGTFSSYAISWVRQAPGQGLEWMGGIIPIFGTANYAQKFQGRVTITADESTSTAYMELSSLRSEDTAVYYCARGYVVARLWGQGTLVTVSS VL: DIVMTQTPLSLSVTPGQPASISCKSSQSLLHIDGNTYLYWYLQRPGQPPQLLIYEISNRFSGVPDRFSGSGSGTDFTLKISRVEAEDVGVYYCMQSLHFPITFGQGTRLEIK | nM | 2.82

Could you now look at the following binder, please?
So what does the record say about IC50, inhibition of PTHrP(1-34)-induced cAMP accumulation for XPA.85.347 (antibody, V domains shown, Light-chain-shuffled variant of XPA.85.012) VH: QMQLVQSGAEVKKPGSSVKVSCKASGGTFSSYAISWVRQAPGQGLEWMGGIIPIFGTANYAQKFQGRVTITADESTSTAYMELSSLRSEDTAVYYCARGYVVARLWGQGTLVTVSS VL: DIVMTQTPLSLSVTPGQPASISCKSSQSLFHDHGRTHLSWYLQKPGQPPQLLIFEASNRFSGVPDRFSGSGSGTDFTLKISRVEAEDVGVYYCMQGIHLPPAFGGGTKLEIK ?
2.9
